The values you see were collected from PubChem BioAssay AID1209.

test system: Mannose-6-phosphate isomerase (Homo sapiens) (UniProt P34949)
Sequence (P34949 whole entry, looked up): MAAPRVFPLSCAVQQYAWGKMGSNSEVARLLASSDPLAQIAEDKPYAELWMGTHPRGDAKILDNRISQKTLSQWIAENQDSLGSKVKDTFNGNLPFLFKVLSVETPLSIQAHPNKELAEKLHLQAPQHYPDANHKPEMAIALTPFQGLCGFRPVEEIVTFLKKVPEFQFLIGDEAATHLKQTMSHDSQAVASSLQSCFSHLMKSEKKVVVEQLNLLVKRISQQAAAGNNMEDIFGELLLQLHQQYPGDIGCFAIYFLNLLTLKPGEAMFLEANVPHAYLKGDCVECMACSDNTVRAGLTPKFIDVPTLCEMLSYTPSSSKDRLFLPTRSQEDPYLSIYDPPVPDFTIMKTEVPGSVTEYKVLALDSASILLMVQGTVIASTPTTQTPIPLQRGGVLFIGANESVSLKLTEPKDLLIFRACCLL
procedure text: inhibitors of human PMI, primary screen, biochemical, fluorescence intensity, coupled assay (AID 1209);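 also: plate controls were DMSO vehicle for no effect and wells lacking substrate for full effect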
assay conditions: purified PMI enzyme, at 20 µM
In all, about 190,000 compounds went through this assay and about 810 (0.43%) were called active. Rule as the data show it: active = inhibition above about 50%; inactive = the rest. What follows is part of a selection rich in actives, with near analogues and random picks from the rest.
Respond with a class label; see Yes for active, No for inactive

molecule | label class
O=[N+]([O-])c1ccc2c(c1)ncn2-c1ccccc1 | No

Read the next record carefully.
# lookup: test call for "COc1cc(C(=O)O/N=C2\C=CC(=O)C(C)=C2)cc(OC)c1OC" Yes

* * *

Reported inhibition is given for each of the following molecules.
test system: Mannose-6-phosphate isomerase (Homo sapiens)
procedure text: inhibitors of human PMI, primary screen, biochemical, fluorescence intensity, coupled assay (AID 1209);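 also: plate controls were DMSO vehicle for no effect and wells lacking substrate for full effect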
assay conditions: purified PMI enzyme, at 20 µM, stronger effect = higher value
Screen size: about 190,000 compounds; about 810 (0.43%) were called active. The full list was thinned out, with actives kept by preference.
Give your result in % as a bare value.

Some solved cases for reference:
structure smiles | readout label | endpoint result
COc1ccc(-n2c(COc3ccc(C)cc3)nnc2SCc2ccc(C#N)cc2)cc1 | inhibition | 10.6
CCSc1nnc2nc(C)cc(C)n12 | inhibition | 7.6
CCCNC(=O)COC(=O)c1ccccc1OCC(=O)Nc1ccc(Br)cc1 | inhibition | -10.2
COc1ccccc1/C=N/NC(=O)COCC(=O)N/N=C/c1ccccc1OC | inhibition | 12.7

Per the record, "CN(C)c1ccc(C(=O)OCc2ccccc2)cc1" has inhibition of 16

* * *

Reported inhibition is given for each of the following molecules.
test system: Mannose-6-phosphate isomerase (Homo sapiens)
procedure text: inhibitors of human PMI, primary screen, biochemical, fluorescence intensity, coupled assay (AID 1209);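 also: plate controls were DMSO vehicle for no effect and wells lacking substrate for full effect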
assay conditions: purified PMI enzyme, at 20 µM, stronger effect = higher value
About 810 (0.43%) of roughly 190,000 compounds were called active. The sample as a whole holds a higher share of actives than the screen did.
Give your result in % as a bare value.

molecule | test system | endpoint result
Cc1ccccc1NC(=O)C1c2cccc[n+]2CC(=O)N1c1c(C)cccc1C (stereo unspecified) | Mannose-6-phosphate isomerase (Homo sapiens) | 91.6
CC(C)(C)C(=O)CSc1nnc(Nc2ccccc2)s1 | Mannose-6-phosphate isomerase (Homo sapiens) | 39.6
COc1ccc2sc(C)[n+](C)c2c1 | Mannose-6-phosphate isomerase (Homo sapiens) | 84.3
CCCn1nc(C(=O)NC2CCCc3ccccc32)c2ccccc2c1=O (stereo unspecified) | Mannose-6-phosphate isomerase (Homo sapiens) | 6.9
CCC[n+]1c(C)sc2c(OC)ccc(OC)c21 | Mannose-6-phosphate isomerase (Homo sapiens) | 3.5

Per the record, COc1ccc2cc(CN(CC3CCCO3)C(=O)Nc3ccccc3OC)c(=O)[nH]c2c1 (stereo unspecified) has inhibition of 3.2

Per the record, "Cc1ccc2c(c1)sc(C)[n+]2CCCS(=O)(=O)[O-]" has inhibition of 9.6

* * *

Reported inhibition is given for each of the following molecules.
test system: Mannose-6-phosphate isomerase (Homo sapiens)
procedure text: inhibitors of human PMI, primary screen, biochemical, fluorescence intensity, coupled assay (AID 1209);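 also: plate controls were DMSO vehicle for no effect and wells lacking substrate for full effect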
assay conditions: purified PMI enzyme, at 20 µM, stronger effect = higher value
The campaign covered roughly 190,000 compounds. About 810 (0.43%) were called active. The sample holds actives, similar compounds and a random draw of the others, so the mix is not that of the screen.
Give your result in % as a bare value.

Some solved cases for reference:
molecule | readout label | endpoint result
Cc1ccc(C(=O)CSc2ncn[nH]2)cc1 | inhibition | -6.3
COc1ccc(/C=N/Nc2nc(N3CCCC3)nc(N3CCCC3)n2)cc1O | inhibition | -10.3
COCCN(C(=O)Cn1nnc2ccccc21)C(C(=O)NC1CCCC1)c1ccc(OC)cc1OC (stereo not given) | inhibition | -10.6
CCc1ccc(C(=O)CSc2ncn[nH]2)cc1 | inhibition | 42.1

Let's switch to this molecule now.
Per the record, "COc1cc(/C=N/Nc2nc(N3CCCC3)nc(N3CCCC3)n2)ccc1O" has inhibition of 7.9
